Measured on: Cytochrome P450 2C19 (Homo sapiens)
Assay comment: blockers of cytochrome P450 2C19 activity – biochemical, luminescence, ADME assay, primary screen (AID 778);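 further: plate controls were negative control wells for no effect and 2.5 mM tranylcypromine positive control for full effect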
Stated conditions: CYP2C19 Supersomes, luciferin-H EGE luminescence, 30 min; at 5 µM; active compounds read high
About 20,000 (21%) of roughly 96,000 compounds were called active. These entries were drawn from the full list.
Would you mind classing the entries by inhibition? Ranges: label 0: < 10%; label 1: ≥ 10% and < 40%; label 2: ≥ 40%

| Compound | Category |
| --- | --- |
| CCN(CC)C(=O)CC1(c2ccccc2OC)CCOC(C(C)C)C1 (stereo not given) | label 2 |
| CCOC(=O)c1cc(-c2ccc(Cl)s2)nc2c1c(C)nn2C | label 1 |
| COc1ccc(/C=C(\NC(=O)c2ccc(OC)c(OC)c2)C(=O)NCCc2c[nH]c3ccccc23)cc1 | label 1 |
| CN(c1ccc(C(=O)NCc2ccccn2)cc1)S(C)(=O)=O | label 1 |
| O=S(=O)(NCc1ccccn1)c1ccc(Br)s1 | label 2 |
| Cc1cc(C(=O)Nc2c(C)nn(Cc3ccccc3)c2C)on1 | label 1 |
| Cc1cc(OCCOc2cccc3cccnc23)c(C)cc1Cl | label 2 |
| Brc1cccc(-c2nnc3n2CCC3)c1 | label 0 |
| Cc1ccc(-c2nnc(SC(C)C#N)n2N)cc1 (stereo not given) | label 0 |

###

Measured on: Cytochrome P450 2C19 (Homo sapiens) (UniProt P33261)
Sequence (P33261 whole entry, looked up): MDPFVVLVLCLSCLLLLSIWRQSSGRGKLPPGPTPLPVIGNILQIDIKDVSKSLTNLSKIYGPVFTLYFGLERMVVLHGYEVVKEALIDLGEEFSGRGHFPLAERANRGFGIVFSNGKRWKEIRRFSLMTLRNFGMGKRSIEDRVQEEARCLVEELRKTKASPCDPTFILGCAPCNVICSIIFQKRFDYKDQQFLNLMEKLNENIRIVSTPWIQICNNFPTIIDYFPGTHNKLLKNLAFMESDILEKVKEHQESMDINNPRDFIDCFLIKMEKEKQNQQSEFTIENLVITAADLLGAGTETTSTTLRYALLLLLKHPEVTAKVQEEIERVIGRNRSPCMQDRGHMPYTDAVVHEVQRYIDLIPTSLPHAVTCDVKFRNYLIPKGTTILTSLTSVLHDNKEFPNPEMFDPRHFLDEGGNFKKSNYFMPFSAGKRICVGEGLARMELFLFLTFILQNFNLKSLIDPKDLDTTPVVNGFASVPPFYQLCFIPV
Assay comment: blockers of cytochrome P450 2C19 activity – biochemical, luminescence, ADME assay, primary screen (AID 778)
Stated conditions: CYP2C19 Supersomes, luciferin-H EGE luminescence, 30 min; at 5 µM
Screen size: about 96,000 compounds; about 20,000 (21%) were called active.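 How the source made its calls: active means CYP2C19 inhibition above a set limit at 5 µM in the primary screen (cut at about 50% in these data); inactive means the rest.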 Only a sample is shown.
Possible outcomes: yes (1) = active, no (0) = inactive

| Compound | Category |
| --- | --- |
| CCC/C(O)=C1\C(=O)CC(C)(C)CC1=Nc1ccccc1OC | no (0) |
| O=C1c2cccc3cccc(c23)N1CN1CCN(c2ccccn2)CC1 | no (0) |
| Cn1c(CN2CCOCC2)nc2cc(NC(=O)c3ccc(Cl)cc3)ccc21 | no (0) |
| COC(=O)c1nc(NC(=O)c2ccccc2)n[nH]1 | no (0) |
| COC(=O)c1ccc(C2C3=C(Nc4nnnn42)c2ccccc2OC3)cc1 (configuration not stated) | yes (1) |
| CCOc1cccc(C(=O)Nc2nnc(-c3cccs3)s2)c1 | no (0) |
| O=C(Nc1sc2c(c1-c1nc3ccccc3[nH]1)CCCC2)C1CC1 | no (0) |
| Cc1cccc(C(=O)Nc2ccc(CC(=O)O)cc2)c1 | no (0) |
| CC(=O)Nc1ccccc1OC(=O)N1CCOCC1 | no (0) |
| C/C(=N\O)C1(C)N(O)C(C)(C)C(c2ccc(Br)cc2)=[N+]1[O-] (configuration not stated) | no (0) |
| Cc1ccc(/C=N/NC(=O)C(NC(=O)c2ccccc2)c2n[nH]c(=O)c3ccccc23)cc1 (configuration not stated) | no (0) |
| OC(COc1cccc2ccccc12)CN1CCN(c2ccccn2)CC1 (configuration not stated) | yes (1) |
| COc1ccc(C2C(C(C)=O)=C(O)C(=O)N2c2nccs2)cc1 (configuration not stated) | no (0) |
| COCCOC(=O)C1=C(C)N=c2s/c(=C\c3cccs3)c(=O)n2C1c1cccs1 (configuration not stated) | no (0) |
| O=C(O)COc1ccc(-c2nccc(-c3cccs3)n2)cc1 | no (0) |
| CN(C)CCCNC(=O)c1ccc2[nH]c3ccccc3c2c1 | no (0) |
| O=C(/C=C/c1cccs1)c1cc(Cl)ccc1OC(=O)N1CCOCC1 | yes (1) |

###

Measured on: Cytochrome P450 2C19 (Homo sapiens)
Assay comment: blockers of cytochrome P450 2C19 activity – biochemical, luminescence, ADME assay, primary screen (AID 778);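 further: plate controls were negative control wells for no effect and 2.5 mM tranylcypromine positive control for full effect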
Stated conditions: CYP2C19 Supersomes, luciferin-H EGE luminescence, 30 min; at 5 µM; active compounds read high
About 20,000 (21%) of roughly 96,000 compounds were called active. Only a sample is shown.
# key: entry, value: inhibition
Outcome measure: inhibition

| Molecule | Measured on | Result |
| --- | --- | --- |
| Cn1c(C(=O)NCCN2CCc3ccccc3C2)cc2c(=O)[nH]c3ccccc3c21 | Cytochrome P450 2C19 (Homo sapiens) | 14.8% (inactive) |
| Cc1cccc(N2CCN(C(=O)CN(C)S(=O)(=O)c3ccc4c(c3)CCC(=O)N4)CC2)c1C | Cytochrome P450 2C19 (Homo sapiens) | 6.3% (inactive) |
| CCOC(=O)N1CCN(C(=O)CN(c2ccc(C)c(C)c2)S(=O)(=O)c2ccccc2)CC1 | Cytochrome P450 2C19 (Homo sapiens) | 63.2% (active) |
| CCOC(=O)N1CCN(C(=O)c2ccc(CN(c3ccc(C)c(C)c3)S(C)(=O)=O)cc2)CC1 | Cytochrome P450 2C19 (Homo sapiens) | 57.3% (active) |
| Cc1ccc2c(c1)-c1c(ssc1=S)C(C)(C)N2C(=O)CN1C(=O)c2ccccc2C1=O | Cytochrome P450 2C19 (Homo sapiens) | 25.1% (inactive) |
| O=C(/C=C/Nc1ccccc1)c1cnc(-c2ccccc2)s1 | Cytochrome P450 2C19 (Homo sapiens) | 0.3% (inactive) |
| O=C(CN1CCN(c2ccccn2)CC1)NCc1cccs1 | Cytochrome P450 2C19 (Homo sapiens) | 34.7% (inactive) |
| O=C(CSc1nnc(-c2ccncc2)n1C1CCCCC1)Nc1ccccc1 | Cytochrome P450 2C19 (Homo sapiens) | 45% (inactive) |
| C=CCSC1=C(C#N)C(c2cc(Br)c(O)c(OC)c2)CC(=O)N1 (configuration not stated) | Cytochrome P450 2C19 (Homo sapiens) | 67.5% (active) |
| C=CCn1c(COc2ccccc2F)nnc1SCC(=O)N1CC(=O)Nc2ccccc21 | Cytochrome P450 2C19 (Homo sapiens) | 22.3% (inactive) |
| CC(=O)c1ccc(Oc2cc(C)nc(-n3nc(C)cc3C)n2)cc1 | Cytochrome P450 2C19 (Homo sapiens) | -5.5% (inactive) |
| O=C(Nc1nnc(CCOCCOCCc2nnc(NC(=O)c3ccco3)s2)s1)c1ccco1 | Cytochrome P450 2C19 (Homo sapiens) | 0.8% (inactive) |

###

Measured on: Cytochrome P450 2C19 (Homo sapiens)
Assay comment: blockers of cytochrome P450 2C19 activity – biochemical, luminescence, ADME assay, primary screen (AID 778);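 further: plate controls were negative control wells for no effect and 2.5 mM tranylcypromine positive control for full effect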
Stated conditions: CYP2C19 Supersomes, luciferin-H EGE luminescence, 30 min; at 5 µM; active compounds read high
The campaign covered roughly 96,000 compounds. About 20,000 (21%) were called active. Not all results are given here.
Returns one of True or False; True when inhibition is >= 20%.

| Molecule | Category |
| --- | --- |
| CN(C(=O)C1CCOC1)c1nnc(-c2cccnc2)s1 (configuration not stated) | False |
| Cc1ccc(S(=O)(=O)Nc2ccccc2CNc2c(C)n(C)n(-c3ccccc3)c2=O)cc1 | True |
| CC1(C)CC(=O)C2=C(C1)NCN(CCCN1CCOCC1)C2 | False |
| O=S(=O)(NCC1OCCc2ccccc21)c1ccccc1 (configuration not stated) | True |
| COc1ccc(S(=O)(=O)Nc2c(C)n(C)n(-c3ccccc3)c2=O)cc1 | False |
| Cc1cc(NC(=O)/C=C/C(=O)N(c2ccccc2C)C(C(=O)NC2CCCC2)c2ccc(F)cc2)no1 (configuration not stated) | False |
| COc1ccc(NC(=O)CSc2nnc(-c3cccs3)n2Cc2ccco2)cc1OC | True |
| Cc1ccc(N(C(=O)CC2NC(=O)NC2=O)C2(C(=O)NC3CCCC3)CCCCC2)cc1 (configuration not stated) | False |
| CCc1ccc(NC(=O)CSc2nnc(-c3cnccn3)n2Cc2ccco2)cc1 | True |
| CCC(C)(C)c1ccc(Oc2ccc(NC(=O)COC(=O)C3=COCCO3)cc2)cc1 | True |
| CC(C)c1ccc(NC(=O)NC2CCCCC2)cc1 | False |
| Cc1cccc(C)c1NC(=O)CCCSc1nnc(-c2ccco2)n1-c1ccccc1 | True |

###

Measured on: Cytochrome P450 2C19 (Homo sapiens)
Assay comment: blockers of cytochrome P450 2C19 activity – biochemical, luminescence, ADME assay, primary screen (AID 778);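 further: plate controls were negative control wells for no effect and 2.5 mM tranylcypromine positive control for full effect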
Stated conditions: CYP2C19 Supersomes, luciferin-H EGE luminescence, 30 min; at 5 µM
Out of some 96,000 compounds screened, about 20,000 (21%) were called active.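 Rule for the calls: active = CYP2C19 inhibition above a set limit at 5 µM in the primary screen (cut at about 50% in these data); inactive = the rest.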 Not all results are given here.
Possible outcomes: true (1) for active, false (0) for inactive

| Compound | Category |
| --- | --- |
| CC(C)c1nc(-c2ccccn2)no1 | false (0) |
| COc1ccccc1C(=O)Oc1ccc(N2C(=O)CCC2=O)cc1 | false (0) |
| COc1cc(OC)cc(C(=O)NCCSCc2ccco2)c1 | false (0) |
| O=C(CCN1c2ccccc2Sc2ccccc21)Nc1ccccc1 | true (1) |
| COc1ccc(N2CCN(C(=O)CSc3nc4cc(OC)c(OC)cc4cc3C#N)CC2)cc1 | false (0) |
| CCCN1CC=C2C(C#N)=C(N)C(C#N)(C#N)C(c3cc(OC)ccc3OC)C2C1 (configuration not stated) | false (0) |
| CC(=O)N(CC1CCCO1)C1(C(=O)NC2CCCC2)CCCCC1 (configuration not stated) | false (0) |
